We begin with a simple list: items and their reported pIC50.
Molecular target: GSK-3β (Homo sapiens, UniProt P49841)
Sequence (P49841 whole entry): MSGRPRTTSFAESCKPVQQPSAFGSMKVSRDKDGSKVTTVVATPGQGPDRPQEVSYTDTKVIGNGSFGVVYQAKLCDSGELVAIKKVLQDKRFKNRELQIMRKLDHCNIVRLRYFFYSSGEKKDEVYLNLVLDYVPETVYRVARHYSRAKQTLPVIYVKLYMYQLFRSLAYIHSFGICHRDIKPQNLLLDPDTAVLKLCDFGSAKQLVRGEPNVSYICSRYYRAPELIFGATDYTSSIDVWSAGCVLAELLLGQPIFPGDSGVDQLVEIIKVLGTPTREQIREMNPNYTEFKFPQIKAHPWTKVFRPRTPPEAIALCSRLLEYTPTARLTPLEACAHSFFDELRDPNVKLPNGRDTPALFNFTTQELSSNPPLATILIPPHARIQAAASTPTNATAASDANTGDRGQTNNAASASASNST
Experiment: GSK-3β kinase HotSpot assay (Reaction Biology)
Format: biochemical
Conditions: 10-point, triplicate, 10 μM ATP, average ± SD
pIC50: −log10 of the molar value.

{"columns": ["structureSmilesString", "pIC50"],
 "data": [
  ["Cc1cccc(/C=C2\\NC(=O)NC2=O)n1", 5.08],
  ["O=C1NC(=O)/C(=C/c2ccc3ncccc3c2)N1", 5.11],
  ["O=C1NC(=O)/C(=C/c2cc(Cl)ccn2)N1", 5.67],
  ["COc1cccc(/C=C2\\NC(=O)NC2=O)n1", 5.39],
  ["O=C1NC(=O)/C(=C/c2cccc(Br)n2)N1", 5.47]
]}
